Origin of the recorded values: patent US20150218212A1

# System: OVCAR-3
# Procedure details: NCI screening panel, OVCAR-3 (Ovarian Cancer)
# Format: cell-based, human
Classification field: enter Yes for Log10TGI50 values not below -7, No for values below it.

Would you please look over these solved cases?
INSERT INTO measurements (compound, group_label) VALUES
  ('CC(C)C[C@H](NC(=O)[C@H](COC(F)F)NC(=O)CN1CCOCC1)C(=O)N[C@@H](COC(F)F)C(=O)N[C@@H](CC(C)C)C(=O)[C@@]1(C)CO1 [Example 1]', 'No'),
  ('CC(C)C[C@H](NC(=O)[C@H](COC(F)F)NC(=O)[C@H](COC(F)F)NC(=O)[C@H](COC(F)F)NC(=O)CN1CCOCC1)C(=O)[C@@]1(C)CO1 [Example 17]', 'Yes'),
  ('CC(C)C[C@H](NC(=O)[C@H](COC(F)F)NC(=O)[C@H](COC(F)F)NC(=O)[C@H](CCc1ccccc1)NC(=O)CN1CCOCC1)C(=O)[C@@]1(C)CO1 [Example 7]', 'No'),
  ('CC(C)C[C@H](NC(=O)[C@H](COC(F)F)NC(=O)CN1CCOCC1)C(=O)N[C@@H](Cc1ccccc1)C(=O)N[C@@H](Cc1ccccc1)C(=O)[C@@]1(C)CO1 [Example 3]', 'No'),
  ('CC(C)C[C@H](NC(=O)[C@H](Cc1ccccc1)NC(=O)[C@H](COC(F)F)NC(=O)[C@H](COC(F)F)NC(=O)CN1CCOCC1)C(=O)[C@@]1(C)CO1 [Example 11]', 'No');

# input for lookup
IN: hey, is Log10TGI50 for this one >= -7? CC(C)C[C@H](NC(=O)[C@H](COC(F)F)NC(=O)CN1CCOCC1)C(=O)N[C@@H](Cc1ccccc1)C(=O)N[C@@H](CC(C)C)C(=O)[C@@]1(C)CO1 [Example 2]
OUT: No
